Biological target: T1, human GIP receptor (human, UniProt P48546 22-466)
T1 sequence (looked up): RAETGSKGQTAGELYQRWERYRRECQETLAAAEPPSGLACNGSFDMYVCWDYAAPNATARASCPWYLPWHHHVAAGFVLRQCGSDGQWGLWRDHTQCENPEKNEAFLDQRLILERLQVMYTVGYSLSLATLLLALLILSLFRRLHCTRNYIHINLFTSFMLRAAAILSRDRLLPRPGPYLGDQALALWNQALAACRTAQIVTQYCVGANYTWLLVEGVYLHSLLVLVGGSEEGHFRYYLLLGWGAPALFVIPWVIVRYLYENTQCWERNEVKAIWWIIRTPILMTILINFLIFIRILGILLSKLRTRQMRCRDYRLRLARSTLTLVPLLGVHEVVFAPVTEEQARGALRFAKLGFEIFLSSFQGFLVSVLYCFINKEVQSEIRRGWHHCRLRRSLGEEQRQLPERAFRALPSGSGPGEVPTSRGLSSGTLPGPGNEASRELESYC
Assay: cell-based or functional assay
Non-standard residues stand in square brackets, D forms with d. Groups on a side chain read outwards from the residue. No end group written: not given here. *: point of attachment. C18 diacid = O=C(O)CCCCCCCCCCCCCCCCC(=O)*; AEEA = NCCOCCOCC(=O)O; Aib = CC(C)(N)C(=O)O
RECORDED_METRIC: EC50, CreLuc assay, 0.5% hP (nM)
Answer in nM, number only, no unit symbol.

Y[Aib]EGTFTSDYSI[Aib]LEKQAQ[Aib]AFVQWLIK([AEEA-AEEA-Glu-Glu-Glu-Glu-C18 diacid])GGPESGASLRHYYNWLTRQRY-NH2 (also: TFA salt) [Compound 52] :: 0.12
YXEGTFTSDYSIXLEKQAQXAFVQWLIKGGPSEYVSLRHYYNWLTRQRY (Aib at 2, 13, 20; K28 side chain: C20DA-gGlu-gGlu-gGlu-gGlu-gGlu-gGlu-eLys; C-terminal NH2) [Compound 78] :: 0.53
YXEGTFTSDYSIXLEXKAQXEFVEWLIKGGPSSGASLRHYYNWLTRQRY (Aib at 2, 13, 16, 20; K28 side chain: C20DA-gGlu-gGlu-gGlu-gGlu-gGlu-gGlu-eLys; C-terminal NH2) [Compound 24] :: 4.1
YXEGTFTSDYSIXLEKQAQXAFVQWLIKGGPSYYVSLRHYYNWLTRQRY (Aib at 2, 13, 20; K28 side chain: C20DA-gGlu-gGlu-gGlu-gGlu-gGlu-gGlu-eLys; C-terminal NH2) [Compound 19] :: 0.61
YXEGTFTSDYSIXLEKQAQXAFVQWLIKGGQSSYASLRHYYNWLTRQRY (Aib at 2, 13, 20; K28 side chain: C20DA-gGlu-gGlu-gGlu-gGlu-gGlu-Glu-eLys; C-terminal NH2) [Compound 22] :: 0.54

Read the next record carefully.
Ask | Fill in: EC50, CreLuc assay, 0.5% hP of YXEGTFTSDYSIXLEKQAQXAFVEWLIKGGPSEYVSIRHYYNWLTRQRY (Aib at 2, 13, 20; K28 side chain: C20DA-gGlu-gGlu-gGlu-gGlu-gGlu-gGlu-eLys; C-terminal NH2) [Compound 42] is ___
Reply | 0.15

Cited source for all entries: patent US20240247080A1
